Target: Jak2 (UniProt O60674)
Sequence (O60674 whole entry, looked up): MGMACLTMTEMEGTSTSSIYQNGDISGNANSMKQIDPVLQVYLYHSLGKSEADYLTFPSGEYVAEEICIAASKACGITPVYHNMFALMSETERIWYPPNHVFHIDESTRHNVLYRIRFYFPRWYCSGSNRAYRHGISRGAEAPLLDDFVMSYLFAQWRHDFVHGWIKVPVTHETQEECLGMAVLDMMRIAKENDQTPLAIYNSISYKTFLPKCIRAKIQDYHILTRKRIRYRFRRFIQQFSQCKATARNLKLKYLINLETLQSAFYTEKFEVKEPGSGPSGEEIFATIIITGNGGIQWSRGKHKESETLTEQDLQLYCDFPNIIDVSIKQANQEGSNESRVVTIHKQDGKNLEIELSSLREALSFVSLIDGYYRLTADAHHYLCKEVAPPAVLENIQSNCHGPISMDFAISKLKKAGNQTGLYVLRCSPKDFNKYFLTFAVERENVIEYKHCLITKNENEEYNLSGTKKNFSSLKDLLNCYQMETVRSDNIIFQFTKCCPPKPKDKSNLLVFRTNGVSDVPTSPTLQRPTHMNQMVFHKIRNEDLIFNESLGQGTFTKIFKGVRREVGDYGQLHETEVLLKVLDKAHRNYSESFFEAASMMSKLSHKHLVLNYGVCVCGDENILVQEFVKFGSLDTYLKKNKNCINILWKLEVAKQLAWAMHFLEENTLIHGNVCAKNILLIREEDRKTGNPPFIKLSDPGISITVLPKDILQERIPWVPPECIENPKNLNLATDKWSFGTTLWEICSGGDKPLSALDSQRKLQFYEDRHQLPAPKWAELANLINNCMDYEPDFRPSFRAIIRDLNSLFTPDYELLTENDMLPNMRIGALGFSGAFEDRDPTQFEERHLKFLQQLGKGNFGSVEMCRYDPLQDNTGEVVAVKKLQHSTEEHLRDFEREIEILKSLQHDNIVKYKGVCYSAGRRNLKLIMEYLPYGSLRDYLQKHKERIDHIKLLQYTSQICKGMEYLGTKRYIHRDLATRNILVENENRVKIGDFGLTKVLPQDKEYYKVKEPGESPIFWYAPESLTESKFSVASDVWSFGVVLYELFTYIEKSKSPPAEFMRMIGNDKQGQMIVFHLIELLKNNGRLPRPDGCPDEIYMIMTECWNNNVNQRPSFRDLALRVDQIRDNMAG
Test: phosphorylation enrichment, bacterial display (enrichment ratio); higher = better substrate or ligand; peptides without Tyr show the background;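 note: 11-residue human phosphosite peptides and single-mutation variants displayed on the E. coli surface, counted by deep sequencing, each peptide's frequency after selection divided by its frequency in the unselected input library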;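 note: frequency after pTyr selection over input frequency; kinase dosed for 20-30% of maximal phosphorylation in three min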
measure_name: phosphorylation enrichment
The answer should be a number; do not append a unit.

The cases that follow already have their phosphorylation enrichment on record.
residues="RNGDRYFKEIV [DCX_Y64_G67E]" val=0.469
residues="QEIATYRRLQE [KRT14_Y415_L419Q]" val=1.51
residues="EVRTQYEEIAQ [KRT76_Y361_A359T]" val=0.919
residues="GLDGSYLLRDS [SH2D1A_Y29]" val=0.578

Sure, the documented phosphorylation enrichment for AAPAAHDAADT [GAMT_Y27_Y27H] is 0.531

Lab note: measured phosphorylation enrichment of QYQLKYSETPF [SIX6OS1_Y129] was 0.7

Recorded result, YTHSDYQYGQR [PKP2_Y166_S169G] , phosphorylation enrichment: 0.317

Note to self: phosphorylation enrichment recorded for ESVNTYLQTSP [NAT1_Y208_M205V] was 0.799
